Values from patent US8906925B2

Target: human recombinant serotonin (5-Hydroxytryptamine) 5-HT2C receptor (Homo sapiens)
Construct: expressed in transfected cells; host or cells: Chinese hamster ovary (CHO-K1) cells
Sequence (P28335 33-458): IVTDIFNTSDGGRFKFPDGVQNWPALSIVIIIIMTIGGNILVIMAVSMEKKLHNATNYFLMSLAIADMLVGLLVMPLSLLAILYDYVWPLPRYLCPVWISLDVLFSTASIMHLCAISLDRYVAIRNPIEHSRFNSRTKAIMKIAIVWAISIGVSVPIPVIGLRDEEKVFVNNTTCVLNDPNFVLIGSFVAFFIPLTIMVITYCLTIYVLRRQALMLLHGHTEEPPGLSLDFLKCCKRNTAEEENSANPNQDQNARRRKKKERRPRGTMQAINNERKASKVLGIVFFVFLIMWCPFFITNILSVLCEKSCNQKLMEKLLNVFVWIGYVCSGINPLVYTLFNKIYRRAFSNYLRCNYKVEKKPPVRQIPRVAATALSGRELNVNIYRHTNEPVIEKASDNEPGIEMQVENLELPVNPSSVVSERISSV
Assay: Serotonin 5-HT2C radioligand binding ([3H]Mesulergine)
Conditions: compound at 1 μM; 1 µM
Exercise: for every item that follows, state its recorded Inhibition of ligand binding, Serotonin 5-HT2C (percent inhibition of specific binding).
Numbers only, in %.

compound: CN1CCc2c(c3cc(Cl)ccc3n2C/C(=C/CCO)c2ccc(F)cc2)C1 [Compound No. 349]
unit_of_measurement: %
number: 98
//
compound: C/C(=C\n1c2c(c3cc(C)ccc31)CN(C)CC2)c1ccncc1 [Compound 88]
unit_of_measurement: %
number: 100
//
compound: C/C(=C\n1c2c(c3cc(Cl)ccc31)CN(C)CC2)c1ccc(Cl)cc1Cl [Compound 210]
unit_of_measurement: %
number: 99
//
compound: C/C(=C\n1c2c(c3ccccc31)CN(C)CC2)c1ccncc1 [Compound 217]
unit_of_measurement: %
number: 92

Switching to the query record.
Endpoint output: Inhibition of ligand binding, Serotonin 5-HT2C (percent inhibition of specific binding) of CN1CCc2c(c3cc(Cl)ccc3n2C/C(=C\CCO)c2ccc(F)cc2)C1 [Compound No. 348] . Value? 95

###

Target: human recombinant adrenergic α2A receptor (Homo sapiens, UniProt P08913)
Construct: expressed in transfected cells; host or cells: insect Sf9 cells
Sequence (P08913 1-465): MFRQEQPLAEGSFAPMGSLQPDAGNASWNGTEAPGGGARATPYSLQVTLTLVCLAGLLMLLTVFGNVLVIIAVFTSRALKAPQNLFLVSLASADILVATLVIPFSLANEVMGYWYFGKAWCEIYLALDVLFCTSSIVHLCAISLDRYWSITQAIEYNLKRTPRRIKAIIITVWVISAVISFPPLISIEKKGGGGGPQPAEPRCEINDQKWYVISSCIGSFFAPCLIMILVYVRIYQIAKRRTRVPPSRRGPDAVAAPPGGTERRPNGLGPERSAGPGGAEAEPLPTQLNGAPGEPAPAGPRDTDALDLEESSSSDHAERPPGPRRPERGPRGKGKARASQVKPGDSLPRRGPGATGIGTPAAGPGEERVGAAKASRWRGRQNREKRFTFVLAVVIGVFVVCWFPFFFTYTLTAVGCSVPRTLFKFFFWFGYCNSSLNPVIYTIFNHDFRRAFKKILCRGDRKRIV
Experiment: Adrenergic α2A radioligand binding ([3H]MK-912)
Conditions: percent inhibition of specific binding; compound at 1 μM; read-out: Inhibition of ligand binding, Adrenergic α2A
experimental_endpoint: inhibition at 1 µM (%)
Numbers only, in %.

Reference set (5 entries):
compound: CN1CCc2c(c3cc(Cl)ccc3n2CC(O)(c2ccc(F)cc2)C2CCC2)C1 (stereo not drawn)
inhibition at 1 µM (%): 96
--
compound: C/C(=C\n1c2c(c3cc(C)ccc31)CN(C)CC2)c1ccc(Cl)cc1
inhibition at 1 µM (%): 97
--
compound: CCC(O)(Cn1c2c(c3cc(C)ccc31)CN(C)CC2)c1ccc(F)cc1 (stereo not drawn)
inhibition at 1 µM (%): 94
--
compound: Cc1ccc2c(c1)c1c(n2CC(C)(O)c2ccc(F)cc2)CCN(C)C1 (stereo not drawn)
inhibition at 1 µM (%): 85
--
compound: COc1ccc(C(C)(O)Cn2c3c(c4cc(C)ccc42)CN(C)CC3)cc1 (stereo not drawn)
inhibition at 1 µM (%): 93

Need inhibition at 1 µM for each of these compounds.
1. CN1CCc2c(c3cc(Cl)ccc3n2/C=C(\c2ccc(F)cc2)C2CC2)C1
2. CN1CCc2c(c3cc(Cl)ccc3n2CC(O)c2cccnc2)C1 (stereo not drawn)
3. CN1CCc2c(c3cc(Cl)ccc3n2C/C(=C\CCO)c2ccc(F)cc2)C1
4. Cc1ccc2c(c1)c1c(n2CC(C)(O)c2ccc(C)nc2)CCN(C)C1 (stereo not drawn)

1. 100
2. 65
3. 92
4. 84

###

Target: human recombinant serotonin (5-Hydroxytryptamine) 5-HT2A receptor (Homo sapiens, UniProt P28223)
Construct: expressed in transfected cells; host or cells: Chinese hamster ovary (CHO-K1) cells
Sequence (P28223 whole entry): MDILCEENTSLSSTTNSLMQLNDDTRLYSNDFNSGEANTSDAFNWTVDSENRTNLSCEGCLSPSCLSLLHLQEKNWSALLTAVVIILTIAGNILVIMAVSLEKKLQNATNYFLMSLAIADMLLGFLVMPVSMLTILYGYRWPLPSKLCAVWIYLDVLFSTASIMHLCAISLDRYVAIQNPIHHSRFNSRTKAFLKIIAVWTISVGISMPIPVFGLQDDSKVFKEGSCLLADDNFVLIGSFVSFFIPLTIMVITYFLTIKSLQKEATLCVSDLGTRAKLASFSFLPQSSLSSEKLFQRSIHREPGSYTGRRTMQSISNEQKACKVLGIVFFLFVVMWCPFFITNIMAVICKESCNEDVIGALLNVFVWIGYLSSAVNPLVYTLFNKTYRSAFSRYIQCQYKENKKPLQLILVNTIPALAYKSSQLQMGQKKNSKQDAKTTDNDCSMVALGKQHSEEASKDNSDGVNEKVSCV
Experiment: Serotonin 5-HT2A radioligand binding ([3H]Ketanserin)
Conditions: read-out: Inhibition of ligand binding, Serotonin 5-HT2A (percent inhibition of specific binding), compound at 1 μM
What inhibition at 1 µM was measured for each of the following?
Answers are plain numbers, in %.

compound: CCC(O)(Cn1c2c(c3cc(C)ccc31)CN(C)CC2)c1ccc(F)cc1 (stereo not drawn) [Compound 175]
unit_of_measurement: %
number: 102
--
compound: C/C(=C\n1c2c(c3cc(Cl)ccc31)CN(C)CC2)c1ccccc1 [compound 106]
unit_of_measurement: %
number: 98
--
compound: Cc1ccc2c(c1)c1c(n2CC(C)(O)c2ccc(C)nc2)CCN(C)C1 (stereo not drawn) [Compound 52]
unit_of_measurement: %
number: 83
--
compound: Cc1ccc2c(c1)c1c(n2C/C(=C/C(=O)O)c2ccc(F)cc2)CCN(C)C1 [Compound No. 352]
unit_of_measurement: %
number: 84
--
compound: C=C(Cn1c2c(c3cc(C)ccc31)CN(C)CC2)c1ccc(O)cc1 [Compound No. 355]
unit_of_measurement: %
number: 92

Quick one: give me inhibition at 1 µM for each item below, same order please.
1. C/C(=C\n1c2c(c3ccc(Cl)cc31)CN(C)CC2)c1ccncc1 [Compound 219]
2. C/C(=C/n1c2c(c3cc(Cl)ccc31)CN(C)CC2)c1cc(F)c(F)cc1Cl [Compound 240]
3. CN1CCc2c(c3cccc(Cl)c3n2C[C@](C)(O)c2ccncc2)C1 [Compound No. 470]

101
99
89

Please look up its inhibition at 1 µM: C/C(=C\n1c2c(c3cc(Cl)ccc31)CN(C)CC2)c1ccncc1 [Compound 90] 100

###

Biological target: human recombinant histamine H2 receptor (Homo sapiens)
Construct: expressed in transfected cells; host or cells: Chinese hamster ovary (CHO) K1 cells
Sequence (P25021 whole entry): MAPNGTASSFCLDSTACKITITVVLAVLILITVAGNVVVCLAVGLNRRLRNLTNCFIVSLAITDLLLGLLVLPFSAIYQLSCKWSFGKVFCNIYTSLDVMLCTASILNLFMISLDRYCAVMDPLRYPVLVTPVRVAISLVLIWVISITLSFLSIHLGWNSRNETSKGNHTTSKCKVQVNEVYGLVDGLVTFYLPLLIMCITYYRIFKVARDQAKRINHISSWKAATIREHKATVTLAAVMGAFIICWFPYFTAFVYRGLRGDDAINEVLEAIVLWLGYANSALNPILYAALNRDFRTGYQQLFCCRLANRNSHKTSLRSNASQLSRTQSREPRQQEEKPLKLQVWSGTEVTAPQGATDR
Experiment: Histamine H2 radioligand binding ([125I]Aminopotentidine)
Conditions: read-out: Histamine Binding (1 μM) H2, percent inhibition of specific binding, 1 μM
Experimental: To evaluate in radioligand binding assays the activity of compounds of the invention, human recombinant histamine H2 receptor expressed in Chinese hamster ovary (CHO) K1 cells (Ruat, M., Proc. Natl. Acad. Sci. USA. 87(5):1658, 1990) in a 50 mM Phosphate buffer, pH 7.4 was used. […] Receptor proteins were filtered and washed, the filters were then counted to determine [^125I]Aminopotentidine specifically bound.
experimental_endpoint: inhibition at 1 µM
Please state the number and follow it with the unit.

Please review the following examples before continuing.
molecule: C/C(=C\n1c2c(c3cc(C)ccc31)CN(C)CC2)c1cccc(F)c1 [Compound 226]
assayed_system: human recombinant histamine H2 receptor (Homo sapiens)
inhibition at 1 µM: 100%
--
molecule: C/C(=C\n1c2c(c3c(Cl)c(Cl)ccc31)CN(C)CC2)c1ccncc1 [Compound 245]
assayed_system: human recombinant histamine H2 receptor (Homo sapiens)
inhibition at 1 µM: 71%
--
molecule: C/C(=C/n1c2c(c3cc(Cl)ccc31)CN(C)CC2)c1cccc(F)c1 [Compound 233]
assayed_system: human recombinant histamine H2 receptor (Homo sapiens)
inhibition at 1 µM: 99%
--
molecule: CCN1CCc2c(c3cc(C)ccc3n2CC(O)c2ccc(C)cc2)C1 (racemic) [Compound 51]
assayed_system: human recombinant histamine H2 receptor (Homo sapiens)
inhibition at 1 µM: 59%

Okay, next one:
Which measured inhibition at 1 µM belongs to Cc1ccc2c(c1)c1c(n2CC(C)(O)c2ccc(O)cc2)CCN(C)C1 (centres unmarked) [Compound 187] , tested on human recombinant histamine H2 receptor (Homo sapiens)? 57%

###

Molecular target: human recombinant serotonin (5-Hydroxytryptamine) 5-HT2A receptor (Homo sapiens, UniProt P28223)
Construct: expressed in transfected cells; host or cells: Chinese hamster ovary (CHO-K1) cells
Experiment: Serotonin 5-HT2A radioligand binding ([3H]Ketanserin)
Conditions: read-out: Inhibition of ligand binding, Serotonin 5-HT2A (percent inhibition of specific binding), compound at 1 μM
Provide the reported inhibition at 1 µM of each item.
Answers are plain numbers, in %.

compound: Cc1ccc2c(c1)c1c(n2CC(O)c2cccnc2)CCN(C)C1 (stereo not drawn)
unit_of_measurement: %
number: 42

Report inhibition at 1 µM for each item below.
1. C/C(=C\n1c2c(c3cc(Cl)ccc31)CN(C)CC2)c1ccc(Cl)c(Cl)c1
2. Cc1ccc2c(c1)c1c(n2CC(O)(c2ccccc2)c2ccc(F)cc2)CCN(C)C1 (stereo not drawn)
3. Cc1ccc2c(c1)c1c(n2CC#Cc2ccccn2)CCN(C)C1
4. COc1ccc2c(c1)c1c(n2/C=C(/C)c2ccncc2)CCN(C)C1
5. C/C(=C\n1c2c(c3cc(C)ccc31)CN(C)CC2)c1cccnc1
6. Cc1ccc2c(c1)c1c(n2CC(C)(O)c2ccc(F)cc2)CCN(C)C1 (stereo not drawn)

[101, 97, 40, 93, 98, 100]

Look up inhibition at 1 µM for the entries below, preserving their order.
1. C/C(=C\n1c2c(c3cc(C)ccc31)CN(C)CC2)c1ccc(Cl)cc1
2. Cc1ccc(/C=C/Cn2c3c(c4cc(Cl)ccc42)CN(C)CC3)cn1

1. 99
2. 97
